- test method notes: Stability of peptides in human plasma
- Type: in vitro ADME
- measurement conditions: human, plasma, pH 7.8
Where a SMILES comes first, the peptide text is derived from it. [ ]: non-standard residue; d: D form. ξ: configuration not given here. Arg(NO2) = N=C(NCCC[C@H](N)C(=O)O)N[N+](=O)[O-]; ξαMePhe(2,6-F2) = CC(N)(Cc1c(F)cccc1F)C(=O)O; ξαMePhe(2-F) = CC(N)(Cc1ccccc1F)C(=O)O; ξαMeW = CC(N)(Cc1c[nH]c2ccccc12)C(=O)O; hhPhe = N[C@@H](CCCc1ccccc1)C(=O)O; hArg = N=C(N)NCCCC[C@H](N)C(=O)O; Cit = NC(=O)NCCC[C@H](N)C(=O)O; ξαMeNle = CCCCC(C)(N)C(=O)O; Nle = CCCC[C@H](N)C(=O)O; Ac5c = NC1(C(=O)O)CCCC1; Ac3c = NC1(C(=O)O)CC1; Aib = CC(C)(N)C(=O)O
assay readout: metabolised at 24 h, 2 μM
Remember to follow the number with its unit.

CCCCC(C)(NC(=O)[C@H](CC(C)C)NC(=O)[C@H](CCC(N)=O)NC(=O)[C@@H](NC(=O)[C@H](CCC(=O)O)NC(=O)C(C)(C)NC(=O)[C@@H](NC(=O)C1(N)CC1)C(C)C)[C@@H](C)CC)C(=O)N[C@@H](Cc1c[nH]cn1)C(=O)N[C@@H](CCC(N)=O)C(=O)N[C@@H](CCCCNC(=N)N)C(=O)N[C@@H](C)C(=O)N[C@@H](CCCCNC(=N)N)C(=O)NC(C)(Cc1c[nH]c2ccccc12)C(=O)N[C@@H](CCCc1ccccc1)C(N)=O (stereo partly shown) [Seq. ID. 945] (H-[Ac3c]V[Aib]EIQL[ξαMeNle]HQ[hArg]A[hArg][ξαMeW][hhPhe]-NH2) = 75%
CCCC[C@H](NC(=O)C(C)(Cc1c(F)cccc1F)NC(=O)[C@H](CCC(N)=O)NC(=O)[C@@H](NC(=O)[C@H](CCC(=O)O)NC(=O)C(C)(C)NC(=O)[C@@H](NC(=O)C1(N)CCCC1)C(C)C)[C@@H](C)CC)C(=O)N[C@@H](Cc1c[nH]cn1)C(=O)N[C@@H](CCC(N)=O)C(=O)N[C@@H](CCCCNC(=N)N)C(=O)NC(C)(C)C(=O)N[C@@H](CCCNC(=N)N[N+](=O)[O-])C(=O)NC(C)(Cc1ccccc1F)C(N)=O (stereo partly shown) [Seq. ID. 260] (H-[Ac5c]V[Aib]EIQ[ξαMePhe(2,6-F2)][Nle]HQ[hArg][Aib][Arg(NO2)][ξαMePhe(2-F)]-NH2) = 70%
CCCC[C@H](NC(=O)C(C)(Cc1ccccc1F)NC(=O)[C@H](CCC(N)=O)NC(=O)[C@@H](NC(=O)[C@H](CCC(=O)O)NC(=O)C(C)(C)NC(=O)[C@@H](NC(=O)C1(N)CCCC1)C(C)C)[C@@H](C)CC)C(=O)N[C@@H](Cc1c[nH]cn1)C(=O)N[C@@H](CCC(N)=O)C(=O)N[C@@H](CCCNC(N)=O)C(=O)NC(C)(C)C(=O)NC(C)(Cc1c(F)cccc1F)C(=O)NC(C)(Cc1ccccc1F)C(N)=O (stereo partly shown) [Seq. ID. 380] (H-[Ac5c]V[Aib]EIQ[ξαMePhe(2-F)][Nle]HQ[Cit][Aib][ξαMePhe(2,6-F2)][ξαMePhe(2-F)]-NH2) = 0%

Now look at this entry.
// query Look up metabolised at 24 h, 2 μM of CCCC[C@H](NC(=O)C(C)(Cc1ccccc1F)NC(=O)[C@H](CCC(N)=O)NC(=O)[C@@H](NC(=O)[C@H](CCC(=O)O)NC(=O)C(C)(C)NC(=O)[C@@H](NC(=O)C(C)(C)N)C(C)C)[C@@H](C)CC)C(=O)N[C@@H](Cc1c[nH]cn1)C(=O)N[C@@H](CCC(N)=O)C(=O)NC(C)(C)C(=O)NC(C)(C)C(=O)NC(C)(Cc1c(F)cccc1F)C(=O)NC(C)(Cc1ccccc1F)C(N)=O (stereo partly shown) [Seq. ID. 570] (H-[Aib]V[Aib]EIQ[ξαMePhe(2-F)][Nle]HQ[Aib][Aib][ξαMePhe(2,6-F2)][ξαMePhe(2-F)]-NH2) and report it.
// result 71%

* * *

- test method notes: Stability of peptides in simulated intestinal fluid (pH 7.5)
- Format: in vitro ADME
- measurement conditions: simulated intestinal fluid, 24 h, 2 μM, pH 7.5
Where a SMILES comes first, the peptide text is derived from it. [ ]: non-standard residue; d: D form. ξ: configuration not given here. ξαMe(hhPhe) = CC(N)(CCCc1ccccc1)C(=O)O; ξαMeW = CC(N)(Cc1c[nH]c2ccccc12)C(=O)O; hArg = N=C(N)NCCCC[C@H](N)C(=O)O; ξαMeNle = CCCCC(C)(N)C(=O)O; Aib = CC(C)(N)C(=O)O
assay readout: % degradation of peptides in 24 h when incubated with simulated intestinal fluid (%)
One number for each entry, in %.

// query State its % degradation of peptides in 24 h when incubated with simulated intestinal fluid for this molecule: CCCCC(C)(NC(=O)[C@H](CC(C)C)NC(=O)[C@H](CCC(N)=O)NC(=O)[C@@H](NC(=O)[C@H](CCC(=O)O)NC(=O)C(C)(C)NC(=O)[C@@H](NC(=O)C(C)(C)N)C(C)C)[C@@H](C)CC)C(=O)N[C@@H](Cc1c[nH]cn1)C(=O)N[C@@H](CCC(N)=O)C(=O)N[C@@H](CCCCNC(=N)N)C(=O)N[C@@H](C)C(=O)N[C@@H](CCCCNC(=N)N)C(=O)NC(C)(Cc1c[nH]c2ccccc12)C(=O)NC(C)(CCCc1ccccc1)C(N)=O (stereo partly shown) [Seq. ID. 949] (H-[Aib]V[Aib]EIQL[ξαMeNle]HQ[hArg]A[hArg][ξαMeW][ξαMe(hhPhe)]-NH2)
// result 100

* * *

- test method notes: Stability of peptides in human liver microsomes
- Assay type: in vitro ADME
- measurement conditions: human, microsomes, 24 h, 2 μM, pH 7.8
Where a SMILES comes first, the peptide text is derived from it. [ ]: non-standard residue; d: D form. ξ: configuration not given here. ξαMePhe(2,6-F2) = CC(N)(Cc1c(F)cccc1F)C(=O)O; ξαMe(hhPhe) = CC(N)(CCCc1ccccc1)C(=O)O; ξαMePhe(2-F) = CC(N)(Cc1ccccc1F)C(=O)O; ξαMeW = CC(N)(Cc1c[nH]c2ccccc12)C(=O)O; hhPhe = N[C@@H](CCCc1ccccc1)C(=O)O; hArg = N=C(N)NCCCC[C@H](N)C(=O)O; ξαMeF = CC(N)(Cc1ccccc1)C(=O)O; ξαMeNle = CCCCC(C)(N)C(=O)O; Nle = CCCC[C@H](N)C(=O)O; ξαMeP = CC1(C(=O)O)CCCN1; Ac5c = NC1(C(=O)O)CCCC1; Ac3c = NC1(C(=O)O)CC1; Aib = CC(C)(N)C(=O)O
assay readout: % degradation of peptides in 24 h when incubated with liver microsomes (%)
One number for each entry, in %.

CCCCC(C)(NC(=O)[C@H](CC(C)C)NC(=O)[C@H](CCC(N)=O)NC(=O)[C@@H](NC(=O)[C@H](CCC(=O)O)NC(=O)C(C)(C)NC(=O)[C@@H](NC(=O)C(C)(C)N)C(C)C)[C@@H](C)CC)C(=O)N[C@@H](Cc1c[nH]cn1)C(=O)N[C@@H](CCC(N)=O)C(=O)N[C@@H](CCCCNC(=N)N)C(=O)N[C@@H](C)C(=O)N[C@@H](CCCCNC(=N)N)C(=O)NC(C)(Cc1c[nH]c2ccccc12)C(=O)NC(C)(CCCc1ccccc1)C(N)=O (stereo partly shown) [Seq. ID. 949] (H-[Aib]V[Aib]EIQL[ξαMeNle]HQ[hArg]A[hArg][ξαMeW][ξαMe(hhPhe)]-NH2) = 100

Each molecule below has a reported value. Please supply its % degradation of peptides in 24 h when incubated with liver microsomes.
1. CCCC[C@H](NC(=O)C(C)(Cc1ccccc1F)NC(=O)[C@H](CCC(N)=O)NC(=O)[C@@H](NC(=O)[C@H](CCC(=O)O)NC(=O)C(C)(C)NC(=O)[C@@H](NC(=O)C1(N)CCCC1)C(C)C)[C@@H](C)CC)C(=O)N[C@@H](Cc1c[nH]cn1)C(=O)N[C@@H](CCC(N)=O)C(=O)NC(C)(C)C(=O)NC(C)(C)C(=O)NC(C)(Cc1c(F)cccc1F)C(=O)NC(C)(Cc1c(F)cccc1F)C(N)=O (stereo partly shown) [Seq. ID. 580] (H-[Ac5c]V[Aib]EIQ[ξαMePhe(2-F)][Nle]HQ[Aib][Aib][ξαMePhe(2,6-F2)][ξαMePhe(2,6-F2)]-NH2)
2. CCCC[C@H](NC(=O)C(C)(Cc1ccccc1F)NC(=O)[C@H](CCC(N)=O)NC(=O)[C@@H](NC(=O)[C@H](CCC(=O)O)NC(=O)C1(NC(=O)[C@@H](NC(=O)C2(N)CCCC2)C(C)C)CCCC1)[C@@H](C)CC)C(=O)N[C@@H](Cc1c[nH]cn1)C(=O)N[C@@H](CCC(N)=O)C(=O)N[C@@H](CCCCNC(=N)N)C(=O)N1CCCC1(C)C(=O)N[C@@H](CCCCN)C(=O)NC(C)(Cc1ccccc1)C(N)=O (stereo partly shown) [Seq. ID. 34] (H-[Ac5c]V[Ac5c]EIQ[ξαMePhe(2-F)][Nle]HQ[hArg][ξαMeP]K[ξαMeF]-NH2)
3. CCCCC(C)(NC(=O)[C@H](CC(C)C)NC(=O)[C@H](CCC(N)=O)NC(=O)[C@@H](NC(=O)[C@H](CCC(=O)O)NC(=O)C(C)(C)NC(=O)[C@@H](NC(=O)C1(N)CC1)C(C)C)[C@@H](C)CC)C(=O)N[C@@H](Cc1c[nH]cn1)C(=O)N[C@@H](CCC(N)=O)C(=O)N[C@@H](CCCCNC(=N)N)C(=O)N[C@@H](C)C(=O)N[C@@H](CCCCNC(=N)N)C(=O)NC(C)(Cc1c[nH]c2ccccc12)C(=O)N[C@@H](CCCc1ccccc1)C(N)=O (stereo partly shown) [Seq. ID. 945] (H-[Ac3c]V[Aib]EIQL[ξαMeNle]HQ[hArg]A[hArg][ξαMeW][hhPhe]-NH2)

// result
83
77
100
